Ref: patent US20150044231A1

Readings of IC50 for the listed binders
EXPERIMENTAL SYSTEM: T1, human C5a receptor (human, UniProt P21730 1-350)
T1 construct: In the SPA: receptor-carrying membrane fragments of RBL-hC5aR cells; also called hC5aR; C5aRI
T1 sequence: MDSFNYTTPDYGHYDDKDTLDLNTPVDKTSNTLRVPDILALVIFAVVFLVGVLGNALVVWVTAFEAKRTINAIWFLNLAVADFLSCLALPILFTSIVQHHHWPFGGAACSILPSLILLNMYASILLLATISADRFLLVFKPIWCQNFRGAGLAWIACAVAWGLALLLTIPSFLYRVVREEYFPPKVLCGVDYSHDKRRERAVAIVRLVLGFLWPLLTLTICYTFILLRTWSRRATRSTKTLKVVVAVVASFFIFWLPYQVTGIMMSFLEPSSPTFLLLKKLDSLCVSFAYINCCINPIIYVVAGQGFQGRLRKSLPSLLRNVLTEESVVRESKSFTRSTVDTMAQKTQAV
EXPERIMENT: SPA, displacement of 125I-hC5a from RBL-hC5aR membranes
MEASURED ATTRIBUTE: IC50 (nM)

• 35F24A3 (antibody, V domains shown, Human monoclonal antibody from HumAb mice, purified from hybridoma supernatant) VH: EVKLVESGGGLVKPGGSLKLSCSASGFAFSNYDMSWVRQTPEKRLEWVAAFSSDGYTFYPDSLKGRFTISRDNARNTLYLQMSSLGSEDTALYCCARHADYANYPVMDYWGQGTSVTVSS VL: DIQMTQSPSSLSASVGDRVTITCRASQGISSWLAWYQQKPEKAPKSLIYAASSLQSGVPSRFSGSGSGTDFTLTISSLQPEDFATYYCQQYNSYPRTFGQGTKVEIKR = 2.97
• 35F32A3 (antibody, V domains shown, Human monoclonal antibody from HumAb mice, purified from hybridoma supernatant) VH: QVQLVESGGGLVRPGRSLRLSCAASGFTFRDYGMHWVRQAPGKSLEWVAVIWFDGINKYYGDSVKGRFTISRDNSKNTLYLQMNSLRAEDTAMYYCVGTYFGPGTTEFFQHWGQGTLVTVSS VL: EIVLTQSPATLSLSPGERATLSCRASQSVSSYLAWYQQKPGQAPRLLIYDASNRATGIPARFSGSGSGTDFTLTISSLEPEDFAVYYCQQRSNWPTFGPGTKVDIKR = 0.95
• 35F12A2 (antibody, V domains shown, Human monoclonal antibody from HumAb mice, purified from hybridoma supernatant) VH: QVQLVESGGGVVQPGRSLRLSCVASGFTFSNYGMHWVRQAPGKGLEWVAVIWYDGINKYYADSVKGRFTISRDNSKSTLYLQMNSLRAEDTAVYYCAGTYYTSGSSKHFQPWGQGTLVTVSS VL: EIVLTQSPATLSLSPGERATLSCRASQSVSSYLSWYQQKPGQAPRLLIYDASNRATGIPARFSGSGSGTDFTLTISSLEPEDFAVYYCQQRSNWPTFGPGTKVDIKR = 2.04
